# Tested on: Erysiphe polygoni
# protocol: Spore germination test
# Assay type: cell-based
# conditionDetails: EP, 40 ppm, 48 hours

- querySmiles: "Cc1ccc(Cl)c(Oc2nsnc(Cl)c2=O)c1"
  Spore Germination Rating: "0 (0-10)"
- querySmiles: "N#Cc1ccc(Oc2nsnc(Cl)c2=O)cc1"
  Spore Germination Rating: "1 (10-40)"
- querySmiles: "O=c1c(Cl)nsnc1Oc1ccc(F)cc1"
  Spore Germination Rating: "0 (0-10)"
- querySmiles: "O=c1c(Cl)nsnc1Oc1ccc(Cl)cc1"
  Spore Germination Rating: "0 (0-10)"
- querySmiles: "CC(=O)Nc1cccc(Oc2nsnc(Cl)c2=O)c1"
  Spore Germination Rating: "4 (80-100)"
- querySmiles: "Cc1ccc(Oc2nsnc(Cl)c2=O)cc1"
  Spore Germination Rating: "1 (10-40)"
- querySmiles: "O=c1c(Cl)nsnc1Oc1c(Cl)cccc1Cl"
  Spore Germination Rating: "0 (0-10)"
- querySmiles: "O=c1c(Cl)nsnc1Oc1ccc(Br)cc1"
  Spore Germination Rating: "0 (0-10)"
- querySmiles: "CC(C)(C)c1ccc(Oc2nsnc(Cl)c2=O)cc1"
  Spore Germination Rating: "0 (0-10)"
- querySmiles: "CS(=O)(=O)c1ccc(Oc2nsnc(Cl)c2=O)cc1"
  Spore Germination Rating: "0 (0-10)"
- querySmiles: "CC(=O)c1ccc(Oc2nsnc(Cl)c2=O)cc1"
  Spore Germination Rating: "1 (10-40)"
- querySmiles: "Cc1cc(C)cc(Oc2nsnc(Cl)c2=O)c1"
  Spore Germination Rating: "0 (0-10)"
- querySmiles: "O=c1c(Cl)nsnc1Oc1ccc(Cl)cc1Cl"
  Spore Germination Rating: "0 (0-10)"
- querySmiles: "CC(=O)c1cccc(Oc2nsnc(Cl)c2=O)c1"
  Spore Germination Rating: "2 (40-60)"
- querySmiles: "CCCCOc1ccc(Oc2nsnc(Cl)c2=O)cc1"
  Spore Germination Rating: "0 (0-10)"
- querySmiles: "O=c1c(Cl)nsnc1Oc1c(Cl)c(Cl)c(Cl)c(Cl)c1Cl"
  Spore Germination Rating: "0 (0-10)"
- querySmiles: "Cc1ccc(Oc2nsnc(Cl)c2=O)c(Br)c1"
  Spore Germination Rating: "0 (0-10)"
- querySmiles: "CC(=O)c1ccccc1Oc1nsnc(Cl)c1=O"
  Spore Germination Rating: "2 (40-60)"
- querySmiles: "N#CCc1ccc(Oc2nsnc(Cl)c2=O)cc1"
  Spore Germination Rating: "4 (80-100)"
- querySmiles: "CC(=O)Nc1ccccc1Oc1nsnc(Cl)c1=O"
  Spore Germination Rating: "1 (10-40)"
- querySmiles: "CCOC(=O)c1ccc(Oc2nsnc(Cl)c2=O)cc1"
  Spore Germination Rating: "0 (0-10)"
- querySmiles: "COc1ccc(Cl)c(Oc2nsnc(Cl)c2=O)c1"
  Spore Germination Rating: "0 (0-10)"

Sourced from patent US4450269A
